Some compounds, each annotated with its measured IC50.
# Test system: Cryptococcus neoformans
# test: Antifungal activity against Cryptococcus neoformans ATCC 90113 after 70 to 74 hrs by alamar blue dye based CLSI method
# Type: functional
Write it as a number; the unit µg/mL goes unstated.

Please review the entries below; each comes with its answer.
>>> recorded_measurement("CC(C)(C)c1ccc(-c2nc(C[C@H](NC(=O)[C@H](Cc3c[nH]c4ccccc34)NC(=O)[C@@H](N)Cc3c[nH]c(-c4ccc(C(C)(C)C)cc4)n3)C(=O)NCc3ccccc3)c[nH]2)cc1")
2.6
>>> recorded_measurement("N[C@@H](Cc1c[nH]c(-c2ccc(-c3ccccc3)cc2)n1)C(=O)N[C@@H](Cc1c[nH]c2ccccc12)C(=O)N[C@@H](Cc1c[nH]c(-c2ccc(-c3ccccc3)cc2)n1)C(=O)NCc1ccccc1")
1.4
>>> recorded_measurement("CC(C)(C)OC(=O)N[C@@H](Cc1c[nH]c(-c2ccccc2)n1)C(=O)N[C@@H](Cc1c[nH]c2ccccc12)C(=O)N[C@@H](Cc1c[nH]c(-c2ccccc2)n1)C(=O)NCc1ccccc1")
1.4

Now consider a different compound.
### Prompt Answer with reported IC50 of COC(=O)[C@H](Cc1c[nH]c(-c2ccc(C(C)(C)C)cc2)n1)NC(=O)[C@H](Cc1c[nH]c2ccccc12)NC(=O)[C@H](Cc1c[nH]c(-c2ccc(C(C)(C)C)cc2)n1)NC(=O)OC(C)(C)C
### Response 1.27
